This listing pairs binders with measured Kd.
tested.on: equine FcRn (large alpha subunit p51) / equine beta-2-microglobulin complex, biotinylated (equine) (UniProt P30441)
test.method.notes: SPR (Biacore), pH 6
property.measured: Kd (nM)

binder: equine IgG1 Y436C (antibody, part only; not given: Variable domains, not shown: another chain or arm of the molecule) constant: ASTTAPKVFALAPGCGTTSDSTVALGCLVSGYFPEPVKVSWNSGSLTSGVHTFPSVLQSSGFYSLSSMVTVPASTWTSETYICNVVHAASNFKVDKRIEPIPDNHQKVCDMSKCPKCPAPELLGGPSVFIFPPNPKDTLMITRTPEVTCVVVDVSQENPDVKFNWYMDGVEVRTATTRPKEEQFNSTYRVVSVLRIQHQDWLSGKEFKCKVNNQALPQPIERTITKTKGRSQEPQVYVLAPHPDELSKSKVSVTCLVKDFYPPEINIEWQSNGQPELETKYSTTQAQQDSDGSYFLYSKLSVDRNRWQQGTTFTCGVMHEALHNHCTQKNVSKNPGK
property.measured: Kd
readout.units: nM
readout.number: 32.8
--
binder: equine IgG1 G426V (antibody, part only; not given: Variable domains, not shown: another chain or arm of the molecule) constant: ASTTAPKVFALAPGCGTTSDSTVALGCLVSGYFPEPVKVSWNSGSLTSGVHTFPSVLQSSGFYSLSSMVTVPASTWTSETYICNVVHAASNFKVDKRIEPIPDNHQKVCDMSKCPKCPAPELLGGPSVFIFPPNPKDTLMITRTPEVTCVVVDVSQENPDVKFNWYMDGVEVRTATTRPKEEQFNSTYRVVSVLRIQHQDWLSGKEFKCKVNNQALPQPIERTITKTKGRSQEPQVYVLAPHPDELSKSKVSVTCLVKDFYPPEINIEWQSNGQPELETKYSTTQAQQDSDGSYFLYSKLSVDRNRWQQGTTFTCVVMHEALHNHYTQKNVSKNPGK
property.measured: Kd
readout.units: nM
readout.number: 8.79
--
binder: equine IgG1 G426A (antibody, part only; not given: variable domains, not shown: another chain or arm of the molecule) constant: ASTTAPKVFALAPGCGTTSDSTVALGCLVSGYFPEPVKVSWNSGSLTSGVHTFPSVLQSSGFYSLSSMVTVPASTWTSETYICNVVHAASNFKVDKRIEPIPDNHQKVCDMSKCPKCPAPELLGGPSVFIFPPNPKDTLMITRTPEVTCVVVDVSQENPDVKFNWYMDGVEVRTATTRPKEEQFNSTYRVVSVLRIQHQDWLSGKEFKCKVNNQALPQPIERTITKTKGRSQEPQVYVLAPHPDELSKSKVSVTCLVKDFYPPEINIEWQSNGQPELETKYSTTQAQQDSDGSYFLYSKLSVDRNRWQQGTTFTCAVMHEALHNHYTQKNVSKNPGK
property.measured: Kd
readout.units: nM
readout.number: 17.6
